Target: 3-phosphoinositide-dependent protein kinase 1 (Homo sapiens)
Sequence (O15530 whole entry): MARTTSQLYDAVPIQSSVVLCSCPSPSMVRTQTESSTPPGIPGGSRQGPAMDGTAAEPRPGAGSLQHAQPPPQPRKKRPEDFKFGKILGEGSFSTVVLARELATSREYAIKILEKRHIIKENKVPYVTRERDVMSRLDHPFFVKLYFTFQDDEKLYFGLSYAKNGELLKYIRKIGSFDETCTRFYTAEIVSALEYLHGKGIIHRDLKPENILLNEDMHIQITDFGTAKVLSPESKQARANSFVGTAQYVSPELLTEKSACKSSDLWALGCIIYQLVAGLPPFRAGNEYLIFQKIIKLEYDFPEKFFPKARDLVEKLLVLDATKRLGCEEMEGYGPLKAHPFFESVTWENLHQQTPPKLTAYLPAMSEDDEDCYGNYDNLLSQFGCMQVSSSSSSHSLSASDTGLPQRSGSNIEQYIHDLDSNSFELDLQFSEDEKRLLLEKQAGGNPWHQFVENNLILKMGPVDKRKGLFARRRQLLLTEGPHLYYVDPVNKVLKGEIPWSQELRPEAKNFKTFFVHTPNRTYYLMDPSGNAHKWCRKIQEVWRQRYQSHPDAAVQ
Outcome measure: pIC50
The value called pIC50 is obtained by taking minus log10 of the concentration in mol/L.

Fill in the recorded pIC50 for this molecule, with 3-phosphoinositide-dependent protein kinase 1 (Homo sapiens) as test system: "O=C1Nc2ccc(-c3nnn[nH]3)cc2C1=Cc1ccc[nH]1" 6.70
